Kindly supply the reported log10 MIC values for the records listed here.
System: Staphylococcus aureus
Test details: Antibacterial activity against methicillin-resistant Staphylococcus aureus ATCC 33591
Format: functional
Response schema: value (number) is log10 of MIC in units of µg/mL.

Req: Record request: log10 MIC value, item COc1ccc(OC)c(C[n+]2ccc3c([nH]c4ccc(OC)cc43)c2CC[C@H](C)[C@H]2CC[C@H]3[C@@H]4[C@H](O)C[C@@H]5C[C@H](O)CC[C@]5(C)[C@H]4CC[C@]23C)c1.[Br-]
Resp: 0.90

Req: Record request: log10 MIC value, item COc1cccc(C[n+]2ccc3c([nH]c4ccc(OC)cc43)c2CC[C@H](C)[C@H]2CC[C@H]3[C@@H]4[C@H](O)C[C@@H]5C[C@H](O)CC[C@]5(C)[C@H]4CC[C@]23C)c1.[Br-]
Resp: 0.90

Req: Record request: log10 MIC value, item CC[n+]1ccc2c([nH]c3ccc(OC)cc32)c1CC[C@H](C)[C@H]1CC[C@H]2[C@@H]3[C@H](O)C[C@@H]4C[C@H](O)CC[C@]4(C)[C@H]3C[C@H](O)[C@]12C.[Br-]
Resp: 1.20

Req: Record request: log10 MIC value, item CCC[n+]1ccc2c([nH]c3ccc(OC)cc32)c1CC[C@H](C)[C@H]1CC[C@H]2[C@@H]3[C@H](O)C[C@@H]4C[C@H](O)CC[C@]4(C)[C@H]3CC[C@]12C.[Br-]
Resp: 0.30

Req: Record request: log10 MIC value, item CCCC[n+]1ccc2c([nH]c3ccc(OC)cc32)c1CC[C@H](C)[C@H]1CC[C@H]2[C@@H]3[C@H](O)C[C@@H]4C[C@H](O)CC[C@]4(C)[C@H]3C[C@H](O)[C@]12C.[Br-]
Resp: 1.20

Req: Record request: log10 MIC value, item COc1ccc2[nH]c3c(CC[C@H](C)[C@H]4CC[C@H]5[C@@H]6[C@H](O)C[C@@H]7C[C@H](O)CC[C@]7(C)[C@H]6C[C@H](O)[C@]45C)[n+](Cc4ccccc4F)ccc3c2c1.[Br-]
Resp: 0.60

Req: Record request: log10 MIC value, item CC[n+]1ccc2c([nH]c3ccc(OC)cc32)c1CC[C@H](C)[C@H]1CC[C@H]2[C@@H]3[C@H](O)C[C@@H]4C[C@H](O)CC[C@]4(C)[C@H]3CC[C@]12C.[Br-]
Resp: 0.30

Req: Record request: log10 MIC value, item COc1ccc2[nH]c3c(CC[C@H](C)[C@H]4CC[C@H]5[C@@H]6[C@H](O)C[C@@H]7C[C@H](O)CC[C@]7(C)[C@H]6CC[C@]45C)[n+](Cc4ccc(C)cc4)ccc3c2c1.[Br-]
Resp: 1.20

Req: Record request: log10 MIC value, item COc1ccc2[nH]c3c(CC[C@H](C)[C@H]4CC[C@H]5[C@@H]6[C@H](O)C[C@@H]7C[C@H](O)CC[C@]7(C)[C@H]6CC[C@]45C)[n+](Cc4ccc(Br)cc4)ccc3c2c1.[Br-]
Resp: 1.51
